The reported measurements were obtained from patent US12396968B2.

Test: Passive artificial blood brain barrier membrane permeability assay (PAMPA-BBB)
Type: in vitro ADME
Settings: 10 μM compound, 1% porcine brain polar lipid extract/dodecane, room temperature
Method: Passive artificial blood brain barrier membrane permeability assay (PAMPA-BBB) were performed using 150 μL of 10 μM compounds (5% DMSO) added to PVDF membranes pre-coated with 5 μL of 1% brain polar lipid extract (Porcine)/dodecane mixture and incubated for 4 h at room temperature with shaking at 300 rpm. Donor and acceptor samples were analyzed by LC-MS/MS. […]
// classify(record): look up Papp at 4 h, 10 μM in ranges low = under 30 ×10⁻⁶ cm/s, moderate = from 30 ×10⁻⁶ cm/s up to 100 ×10⁻⁶ cm/s, high = 100 ×10⁻⁶ cm/s and over

>>> assignedclass("O=C(NC1CC(CCCc2ccccc2)C1)C1CCC(O)CC1 (stereo not shown) [Formula 31A]")
"moderate"
>>> assignedclass("O=C(CCCCCc1ccccc1)N1CCC(O)CC1 [Formula 9]")
"moderate"
>>> assignedclass("O=C(CCCCCCc1ccccc1)N1CCC(O)CC1 [Formula 7]")
"high"
>>> assignedclass("O=C(NC1CC1OCCCc1ccccc1)C1CCC(O)CC1 (stereo not shown) [Formula 34A]")
"low"
>>> assignedclass("O=C(CCCCCCc1ccccc1)N1CCCC(O)C1 (stereo not shown) [Formula 8]")
"high"
>>> assignedclass("O=C(NC1CC1OCc1ccccc1)C1CCC(O)CC1 (stereo not shown) [Formula 33A]")
"low"
>>> assignedclass("O=C(CCCCCCCc1ccccc1)N1CCC(O)CC1 [Formula 10]")
"high"
>>> assignedclass("O=C(N[C@H]1C[C@@H]1OCCc1ccccc1)[C@H]1CC[C@H](O)CC1 [Formula 32A]")
"low"
>>> assignedclass("O=C(NC1CC1CCCCc1ccccc1)C1CCC(O)CC1 (stereo not shown) [Formula 30A]")
"moderate"

----------
Assay: Liver microsome stability, mouse
Format: in vitro ADME
Conditions: mouse liver microsomes 0.5 mg/ml, 1 uM compound; read-out: Liver Microsomes (t1/2, minutes) Mouse
Experimental: In vitro pharmacokinetic analyses were performed in duplicate using standard methods by WuXi AppTec Co. Ltd. (Shanghai, China). Plasma protein binding was measured by equilibrium dialysis; % bound=(1−[free compound in dialysate]/[total compound in retentate])×100. Plasma stability of 2 uM compounds in clarified freeze-thawed plasma was assessed by LC-MS/MS of supernatants after protein precipitation; 120 min data are reported for studies including 0, 10, 30, 60, and 120 min. […]
attributeMeasured: half-life at 1 uM

>>> assayresult("O=C(NC1CC1OCc1ccccc1)C1CCC(O)CC1 (stereo not drawn) [Formula 33A]")
"> 145 min"
>>> assayresult("O=C(CCCCCCc1ccccc1)N1CCC(O)CC1")
"52.5 min"
>>> assayresult("O=C(CCCCCCc1ccccc1)N1CCCC(O)C1 (stereo not drawn)")
"22.5 min"
>>> assayresult("O=C(CCCCCCCc1ccccc1)N1CCC(O)CC1")
"28 min"
>>> assayresult("O=C(NCCCCCc1ccccc1)C1CCC(O)CC1 (stereo not drawn)")
"102 min"
>>> assayresult("O=C(N[C@H]1C[C@@H]1OCCc1ccccc1)[C@H]1CC[C@H](O)CC1 [Formula 32A]")
"> 145 min"
>>> assayresult("O=C(NC1CC(CCCc2ccccc2)C1)C1CCC(O)CC1 (stereo not drawn) [Formula 31A]")
"224 min"
>>> assayresult("O=C(CCCCCc1ccccc1)N1CCC(O)CC1")
"82.4 min"
>>> assayresult("O=C(NC1CC1OCCCc1ccccc1)C1CCC(O)CC1 (stereo not drawn) [Formula 34A]")
"> 145 min"

----------
Test: Liver microsome stability, human
Format: in vitro ADME
Details: human liver microsomes 0.5 mg/ml, 1 uM compound; read-out: Liver Microsomes (t1/2, minutes) Human
Description: In vitro pharmacokinetic analyses were performed in duplicate using standard methods by WuXi AppTec Co. Ltd. (Shanghai, China). Plasma protein binding was measured by equilibrium dialysis; % bound=(1−[free compound in dialysate]/[total compound in retentate])×100. Plasma stability of 2 uM compounds in clarified freeze-thawed plasma was assessed by LC-MS/MS of supernatants after protein precipitation; 120 min data are reported for studies including 0, 10, 30, 60, and 120 min. […]
attributeMeasured: half-life at 1 uM (min)

>>> assayresult("O=C(CCCCCCCc1ccccc1)N1CCC(O)CC1 [Formula 10]")
64.5
>>> assayresult("O=C(NC1CC(CCCc2ccccc2)C1)C1CCC(O)CC1 (stereo not drawn) [Formula 31A]")
110
>>> assayresult("O=C(CCCCCCc1ccccc1)N1CCC(O)CC1 [Formula 7]")
103
>>> assayresult("O=C(CCCCCCc1ccccc1)N1CCCC(O)C1 (stereo not drawn) [Formula 8]")
60.6

----------
test: Plasma protein binding by equilibrium dialysis, human; format: in vitro ADME; settings: read-out: Plasma Protein Binding (Bound %) Human (converted)
Give Fulfilled when the value for fraction unbound is at least 0.2. Give Not fulfilled when it is less.

>>> assignedclass("O=C(NC1CC(CCCc2ccccc2)C1)C1CCC(O)CC1 (stereo not drawn) [Formula 31A]")
"Not fulfilled"
>>> assignedclass("O=C(CCCCCCc1ccccc1)N1CCC(O)CC1")
"Not fulfilled"
>>> assignedclass("O=C(CCCCCCCc1ccccc1)N1CCC(O)CC1")
"Not fulfilled"
>>> assignedclass("O=C(NCCCCCc1ccccc1)C1CCC(O)CC1 (stereo not drawn)")
"Not fulfilled"
>>> assignedclass("O=C(NC1CC1OCc1ccccc1)C1CCC(O)CC1 (stereo not drawn) [Formula 33A]")
"Fulfilled"
>>> assignedclass("O=C(CCCCCCc1ccccc1)N1CCCC(O)C1 (stereo not drawn)")
"Not fulfilled"
>>> assignedclass("O=C(CCCCCc1ccccc1)N1CCC(O)CC1")
"Not fulfilled"
>>> assignedclass("O=C(NC1CC1OCCCc1ccccc1)C1CCC(O)CC1 (stereo not drawn) [Formula 34A]")
"Fulfilled"
>>> assignedclass("O=C(N[C@H]1C[C@@H]1OCCc1ccccc1)[C@H]1CC[C@H](O)CC1 [Formula 32A]")
"Fulfilled"

----------
experiment: Plasma protein binding by equilibrium dialysis, mouse; format: in vitro ADME; conditions: read-out: Plasma Protein Binding (Bound %) Mouse (converted)
Listing of recorded fraction unbound by entry.
attributeMeasured: fraction unbound

>>> assayresult("O=C(CCCCCc1ccccc1)N1CCC(O)CC1")
0.088
>>> assayresult("O=C(NC1CC(CCCc2ccccc2)C1)C1CCC(O)CC1 (stereo not drawn) [Formula 31A]")
0.029
>>> assayresult("O=C(CCCCCCc1ccccc1)N1CCCC(O)C1 (stereo not drawn)")
0.041
>>> assayresult("O=C(NCCCCCc1ccccc1)C1CCC(O)CC1 (stereo not drawn)")
0.071
>>> assayresult("O=C(NC1CC1OCc1ccccc1)C1CCC(O)CC1 (stereo not drawn) [Formula 33A]")
0.361
>>> assayresult("O=C(N[C@H]1C[C@@H]1OCCc1ccccc1)[C@H]1CC[C@H](O)CC1 [Formula 32A]")
0.279
>>> assayresult("O=C(NC1CC1OCCCc1ccccc1)C1CCC(O)CC1 (stereo not drawn) [Formula 34A]")
0.221
>>> assayresult("O=C(CCCCCCc1ccccc1)N1CCC(O)CC1")
0.043
>>> assayresult("O=C(CCCCCCCc1ccccc1)N1CCC(O)CC1")
0.011
